Cited source for all entries: ChEMBL document CHEMBL5236602

Test: Metabolic stability in pooled cryopreserved human hepatocytes assessed as half life at 1 uM incubated for 60 mins by HPLC-MS/MS analysis
Type: ADME, cell-based, Hepatocyte
MEASURED_METRIC: half-life at 1 µM (min)
Respond with the bare value in min.

Q) Suppose we examine the compound C[C@@H](NP(=O)(OC[C@@H]1C[C@@H](O)[C@H](n2cnc3c(N)ncnc32)O1)Oc1cccc2ccccc12)C(=O)OCc1ccccc1 (stereo partly specified) ; what half-life at 1 µM value has been reported?
A) 43.4

###

Test: Drug concentration in mouse plasma at 20 uM measured after 30 sec by UPLC-MS/MS analysis
Type: ADME, cell-free
MEASURED_METRIC: concentration at 0.5 min, 20 µM (ng/mL)
Give just the numeric value; ng/mL need not be written.

Q) Please report the recorded concentration at 0.5 min, 20 µM for C[C@H](NP(=O)(OC[C@@H]1C[C@@H](O)[C@H](n2cnc3c(N)ncnc32)O1)Oc1ccccc1)C(=O)OCc1ccccc1 (stereo partly specified) [FOSDESDENOSINE SIPALABENAMIDE] .
A) 0.5

###

Experiment: Drug concentration in human plasma at 20 uM measured after 30 sec by UPLC-MS/MS analysis
Assay type: ADME, cell-free
MEASURED_METRIC: concentration at 0.5 min, 20 µM

Q) Item C[C@H](NP(=O)(OC[C@@H]1C[C@@H](O)[C@H](n2cnc3c(N)ncnc32)O1)Oc1ccccc1)C(=O)OCc1ccccc1 (stereo partly specified) [FOSDESDENOSINE SIPALABENAMIDE] has what recorded concentration at 0.5 min, 20 µM?
A) 10000 ng/mL
